Molecular target: T1, EsCas13d, nuclease-dead (Eubacterium siraeum, UniProt B0MS50, R295A;H300A;R849A;H854A)
T1 sequence: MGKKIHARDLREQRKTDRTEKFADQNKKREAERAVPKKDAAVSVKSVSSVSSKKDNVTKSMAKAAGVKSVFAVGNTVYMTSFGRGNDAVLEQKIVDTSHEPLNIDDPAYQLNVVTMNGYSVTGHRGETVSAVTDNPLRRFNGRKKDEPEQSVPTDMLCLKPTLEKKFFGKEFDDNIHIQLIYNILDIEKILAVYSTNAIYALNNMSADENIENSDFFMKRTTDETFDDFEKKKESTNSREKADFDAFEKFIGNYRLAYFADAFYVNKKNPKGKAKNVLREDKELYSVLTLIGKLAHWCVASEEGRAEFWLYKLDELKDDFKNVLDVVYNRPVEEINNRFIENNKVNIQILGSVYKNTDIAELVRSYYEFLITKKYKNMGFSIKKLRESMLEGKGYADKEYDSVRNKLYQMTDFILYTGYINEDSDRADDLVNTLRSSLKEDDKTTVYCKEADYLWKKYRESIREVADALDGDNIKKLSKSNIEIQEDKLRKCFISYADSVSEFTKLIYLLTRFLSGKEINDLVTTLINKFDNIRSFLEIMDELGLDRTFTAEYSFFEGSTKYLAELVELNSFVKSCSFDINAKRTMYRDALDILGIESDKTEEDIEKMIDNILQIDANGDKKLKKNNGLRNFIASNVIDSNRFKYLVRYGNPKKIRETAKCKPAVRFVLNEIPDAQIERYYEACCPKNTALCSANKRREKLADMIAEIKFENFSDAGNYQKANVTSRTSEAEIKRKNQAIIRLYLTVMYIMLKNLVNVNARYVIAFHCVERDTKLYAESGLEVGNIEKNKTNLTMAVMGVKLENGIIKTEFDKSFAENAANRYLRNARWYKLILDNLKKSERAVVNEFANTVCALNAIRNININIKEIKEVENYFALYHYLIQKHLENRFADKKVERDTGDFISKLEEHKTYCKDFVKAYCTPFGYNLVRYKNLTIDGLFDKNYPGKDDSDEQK
Assay: crRNA (strand 1, pre-loaded); Mg2+; 40 mM Tris-HCl pH 7.5, 150 mM NaCl, 6 mM MgCl2, 1 mM DTT, 0.1% Tween-20, 0.2 mg/ml BSA; 25 C; 10 min per concentration, then washed
Conditions: tags: His6-TwinStrep-SUMO cleaved; N-terminal SNAP kept (SNAP-Surface 488); label: 3' end held by stalled T7 RNA polymerase
readoutName: pKd
// pKd: -log10(molar conc.)

As a guide, the following entries are already answered.
target 2 MT 5'PFS UAA 3'PFS UUC (mixed) RNA 1: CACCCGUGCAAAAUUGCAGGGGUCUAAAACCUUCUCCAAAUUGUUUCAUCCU RNA 2: GGGAAUGGAUCCACAUCUACGAAUUCUAAAGGAUGAAACAAUUUGGAGAAGUUCAGAUCGGAAGAGCACACGU ... 7.85
target 2 MT 5'PFS GCG 3'PFS ACU (mixed) RNA 1: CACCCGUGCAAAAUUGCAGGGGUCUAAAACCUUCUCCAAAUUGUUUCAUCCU RNA 2: GGGAAUGGAUCCACAUCUACGAAUUCGCGAGGAUGAAACAAUUUGGAGAAGACUAGAUCGGAAGAGCACACGU ... 7.86
target 1 MT 5'PFS GAC 3'PFS AAG (mixed) RNA 1: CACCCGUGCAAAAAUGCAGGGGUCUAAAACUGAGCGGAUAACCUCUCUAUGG RNA 2: GGGAAUGGAUCCACAUCUACGAAUUCGACCCAUAGAGAGGUUAUCCGCUCAAAGAGAUCGGAAGAGCACACGU ... 7.30

Task: // returns reported pKd for input target 1 A1U,C21A (mixed) RNA 1: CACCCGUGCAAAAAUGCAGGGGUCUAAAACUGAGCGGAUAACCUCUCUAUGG RNA 2: GGGAAUGGAUCCACAUCUACGAAUUCGUACAAUAGAGAGGUUAUCCGCUCUCCGAGAUCGGAAGAGCACACGU
Result: 7.60
